The measured values listed here are drawn from ChEMBL document CHEMBL4811250.

Property: pIC50; scope: individual compounds
Target: Isocitrate dehydrogenase [NADP] cytoplasmic (Homo sapiens, UniProt O75874, R132H)
Assay: Inhibition of IDH1 R132H mutant (unknown origin) assessed as reduction in NADPH consumption using alpha-KG as substrate incubated for 5 mins by diaphorase/resazurin-coupled system
Remember, pIC50 is on a log scale: it is -log10 of the molar concentration.

| MOL SMILES | pIC50 |
| --- | --- |
| COc1ccc(OC)c(-n2c3c(cc(-c4nc(-c5ccccc5)cs4)c2=O)C(=O)CC(C)(C)C3)c1 | 5.92 |

# next compound below
Exercise: Could you share which pIC50 value was measured for CCc1cccc(C)c1-n1c2c(cc(-c3nc(-c4ccc(Cl)cc4)cs3)c1=O)C(=O)CC(C)(C)C2 ?
Key: 6.10

###

System: Isocitrate dehydrogenase [NADP] cytoplasmic (Homo sapiens), O75874 [R132H]
Sequence (O75874 whole entry R132H): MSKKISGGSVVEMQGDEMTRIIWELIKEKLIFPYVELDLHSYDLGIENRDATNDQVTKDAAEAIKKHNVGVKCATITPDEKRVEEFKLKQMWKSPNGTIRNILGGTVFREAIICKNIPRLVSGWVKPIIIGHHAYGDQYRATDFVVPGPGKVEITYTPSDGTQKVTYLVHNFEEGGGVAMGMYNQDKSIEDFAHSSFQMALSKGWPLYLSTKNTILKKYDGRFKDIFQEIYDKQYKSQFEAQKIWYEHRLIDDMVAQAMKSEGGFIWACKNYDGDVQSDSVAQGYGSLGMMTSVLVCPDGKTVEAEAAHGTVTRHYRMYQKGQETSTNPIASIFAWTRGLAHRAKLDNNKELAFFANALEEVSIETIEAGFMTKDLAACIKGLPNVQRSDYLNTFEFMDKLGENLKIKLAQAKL
Assay: Inhibition of IDH1 R132H mutant (unknown origin) assessed as reduction in NADPH consumption using alpha-KG as substrate at 38 uM incubated for 5 mins by diaphorase/resazurin-coupled system relative to control
Could you label it met if measured inhibition is 80% or higher, and not met otherwise?

Please review the following examples before continuing.
| MOL SMILES | CATEGORY LABEL |
| --- | --- |
| Cc1ccccc1-n1c2c(cc(-c3nc(-c4ccc(Cl)cc4)cs3)c1=O)C(=O)CC(C)(C)C2 | not met |
| CC1(C)CC(=O)c2cc(-c3nc(-c4ccc(Cl)cc4)cs3)c(=O)n(-c3ccccc3Cl)c2C1 | met |

Exercise: Is inhibition for COc1ccc(OC)c(-n2c3c(cc(-c4nc5ccc(Cl)cc5s4)c2=O)C(=O)CC(C)(C)C3)c1 at or above 80%?
Key: not met

###

Tested on: Isocitrate dehydrogenase [NADP] cytoplasmic (Homo sapiens), O75874 [R132H]
Assay: Inhibition of IDH1 R132H mutant (unknown origin) assessed as reduction in NADPH consumption using alpha-KG as substrate at 38 uM incubated for 5 mins by diaphorase/resazurin-coupled system relative to control
QUANTITY NAME: inhibition (%)
// note: answer is a bare numeric in %

Some entries whose results are on file:
| COMPOUND | RESULT |
| --- | --- |
| CCc1cccc(CC)c1-n1c(CC2CCNC2)c(C(=O)N2CCNCC2)cc(-c2nc(-c3ccc(Cl)cc3)cs2)c1=O (configuration not stated) | 81 |
| CCOc1ccccc1-n1c2c(cc(-c3nc(-c4ccc(Cl)cc4)cs3)c1=O)C(=O)CC(C)(C)C2 | 88 |
| CC1(C)CC(=O)c2cc(-c3nc(-c4ccc(Cl)cc4)cs3)c(=O)n(-c3ccccc3C(=O)O)c2C1 | 96 |

Exercise: What inhibition value was documented for this compound, CCc1cccc(CC)c1-n1c(C)c(C(=O)Nc2ccccc2)cc(-c2nc(-c3ccc(Cl)cc3)cs2)c1=O ?
Key: 40

Exercise: Data request, read-out inhibition, for CC(C)Oc1ccccc1-n1c2c(cc(-c3nc(-c4ccc(Cl)cc4)cs3)c1=O)C(=O)CC(C)(C)C2
Key: 80

Exercise: Item under review: COc1cccc(C)c1-n1c2c(cc(-c3nc(-c4ccc(Cl)cc4)cs3)c1=O)C(=O)CC(C)(C)C2 . Reported inhibition?
Key: 81

Exercise: For COc1ccc(C(=O)O)cc1-n1c2c(cc(-c3nc(-c4ccc(Cl)cc4)cs3)c1=O)C(=O)CC(C)(C)C2 , what is its reported inhibition?
Key: 108

Exercise: Entry under review: CC1(C)CC(=O)c2cc(-c3nc(-c4ccc(Cl)cc4)cs3)c(=O)n(-c3ccccn3)c2C1 . Reported inhibition?
Key: 47

###

Assay: Drug level in human U87MG cells expressing IDH1 R132H mutation transfected in NCr mouse plasma at 30 mg/kg, po measured after 48 hrs by LC-MS/MS analysis
Type: ADME, organism-based, U-87MG ATCC
Conditions: read-out: Drug uptake
QUANTITY NAME: concentration at 48 h (µM)
Numeric answer only, unit µM assumed.

Exercise: Given the compound CCc1ccc(Cl)cc1-n1c(C=C(C)C)c(C(=O)N2CCNCC2)cc(-c2nc(-c3ccc(Cl)cc3)cs2)c1=O , what is its reported concentration at 48 h?
Key: 6.8

###

Molecular target: Isocitrate dehydrogenase [NADP] cytoplasmic (Homo sapiens, UniProt O75874, R132H)
Assay: Inhibition of IDH1 R132H mutant (unknown origin) assessed as reduction in NADPH consumption using alpha-KG as substrate incubated for 5 mins by diaphorase/resazurin-coupled system
QUANTITY NAME: pIC50
Field pIC50 (float): negative decimal logarithm of the concentration in molar.

Completed entries (count: 5):
| MOLECULE | RESULT |
| --- | --- |
| COc1ccc(OC)c(-n2c3c(cc(-c4nc(-c5ccc(Cl)cc5)c[nH]4)c2=O)C(=O)CC(C)(C)C3)c1 | 5.66 |
| CCc1ccccc1-n1c2c(cc(-c3nc(-c4ccc(Cl)cc4)cs3)c1=O)C(=O)CC(C)(C)C2 | 5.70 |
| CCOc1cccc(OCC)c1-n1c2c(cc(-c3nc(-c4ccc(Cl)cc4)cs3)c1=O)C(=O)CC(C)(C)C2 | 6.41 |
| COc1ccc(OC)c(-n2c3c(cc(-c4nc(-c5ccc(Cl)cc5)cs4)c2=O)C(=O)CC(C)(C)C3)c1 | 5.80 |
| CCCC1CN(C(=O)c2cc(-c3nc(-c4ccc(Cl)cc4)cs3)c(=O)n(-c3c(CC)cccc3CC)c2C=C(C)C)CCN1 (stereo unspecified) | 6.89 |

Exercise: Form entry - test system: Isocitrate dehydrogenase [NADP] cytoplasmic (Homo sapiens, UniProt O75874, R132H); read-out: pIC50; molecule: CCc1cccc(CC)c1-n1c(C=C(C)C)c(C(=O)N2CCNC(=O)C2)cc(-c2nc(-c3ccc(Cl)cc3)cs2)c1=O
Key: 7.46

Exercise: Notebook entry, Isocitrate dehydrogenase [NADP] cytoplasmic (Homo sapiens, UniProt O75874, R132H) assay: pIC50 of COc1ccc(OC)c(-n2c3c(cc(-c4ccn(-c5ccccc5)n4)c2=O)C(=O)CC(C)(C)C3)c1 = ?
Key: 5.51

Exercise: Request body: readout pIC50, system Isocitrate dehydrogenase [NADP] cytoplasmic (Homo sapiens, UniProt O75874, R132H), query CCc1cccc(CC)c1-n1c(C=C(C)C)c(C(=O)N2CCNC(C(F)(F)F)C2)cc(-c2nc(-c3ccc(Cl)cc3)cs2)c1=O (stereo unspecified) . Return the value.
Key: 6.44

Exercise: For the record CC1(C)CC(=O)c2cc(-c3nc(-c4ccc(Cl)cc4)cs3)c(=O)n(-c3ccccc3Cl)c2C1 , what value of pIC50 is listed for Isocitrate dehydrogenase [NADP] cytoplasmic (Homo sapiens, UniProt O75874, R132H)?
Key: 5.89

Exercise: What pIC50 appears in the records for this molecule with Isocitrate dehydrogenase [NADP] cytoplasmic (Homo sapiens, UniProt O75874, R132H)? CCc1cccc(CC)c1-n1c(C=C(C)C)c(C(=O)N2CCNC(C)C2)cc(-c2nc(-c3ccc(Cl)cc3)cs2)c1=O (stereo unspecified)
Key: 7.36

Exercise: Return pIC50 measured with Isocitrate dehydrogenase [NADP] cytoplasmic (Homo sapiens, UniProt O75874, R132H) given this molecule: COc1ccc(OC)c(-n2c3c(cc(-c4nc(-c5ccc(Cl)cc5)cs4)c2=O)C(=O)NCC3)c1
Key: 5.64

Exercise: Query for Isocitrate dehydrogenase [NADP] cytoplasmic (Homo sapiens, UniProt O75874, R132H): what pIC50 does the record show for CCc1cccc(C)c1-n1c(C=C(C)C)c(C(=O)N2CCNCC2)cc(-c2nc(-c3ccc(Cl)cc3)cs2)c1=O ?
Key: 6.57

Exercise: Identify the measured pIC50 of CCc1cccc(CC)c1-n1c(C=C(C)C)c(C(=O)N2C3CCC2CNC3)cc(-c2nc(-c3ccc(Cl)cc3)cs2)c1=O for Isocitrate dehydrogenase [NADP] cytoplasmic (Homo sapiens, UniProt O75874, R132H).
Key: 7.21

Exercise: For the record COc1ccc(OC)c(-n2c3c(cc(-c4c[nH]c(-c5ccccc5)n4)c2=O)C(=O)CC(C)(C)C3)c1 , what value of pIC50 is listed for Isocitrate dehydrogenase [NADP] cytoplasmic (Homo sapiens, UniProt O75874, R132H)?
Key: 5.68

###

Target: Isocitrate dehydrogenase [NADP] cytoplasmic (Homo sapiens, UniProt O75874, R132H)
Experiment: Inhibition of IDH1 R132H mutant (unknown origin) assessed as reduction in NADPH consumption using alpha-KG as substrate incubated for 5 mins by diaphorase/resazurin-coupled system
Measured IC50 accompanies every entry in the list below.
Respond numerically; units are nM and should not be typed.

Guide cases for IC50, answers given:
| MOL SMILES | TARGET SYSTEM | READOUT UNIT | IC50 |
| --- | --- | --- | --- |
| CCc1cccc(CC)c1-n1c(C)c(C(=O)O)cc(-c2nc(-c3ccc(Cl)cc3)cs2)c1=O | Isocitrate dehydrogenase [NADP] cytoplasmic (Homo sapiens, UniProt O75874, R132H) | nM | 7200 |
| CCc1ccccc1-n1c(C=C(C)C)c(C(=O)N2CCNCC2)cc(-c2nc(-c3ccc(Cl)cc3)cs2)c1=O | Isocitrate dehydrogenase [NADP] cytoplasmic (Homo sapiens, UniProt O75874, R132H) | nM | 56 |
| CC(C)Oc1ccccc1-n1c2c(cc(-c3nc(-c4ccc(Cl)cc4)cs3)c1=O)C(=O)CC(C)(C)C2 | Isocitrate dehydrogenase [NADP] cytoplasmic (Homo sapiens, UniProt O75874, R132H) | nM | 1100 |
| CCOc1ccc(OCC)c(-n2c3c(cc(-c4nc(-c5ccc(Cl)cc5)cs4)c2=O)C(=O)CC(C)(C)C3)c1 | Isocitrate dehydrogenase [NADP] cytoplasmic (Homo sapiens, UniProt O75874, R132H) | nM | 160 |
| CCc1cccc(CC)c1-n1c(C)c(C(=O)N2CCN(C)CC2)cc(-c2nc(-c3ccc(Cl)cc3)cs2)c1=O | Isocitrate dehydrogenase [NADP] cytoplasmic (Homo sapiens, UniProt O75874, R132H) | nM | 2900 |

Exercise: Looking for the measured IC50 of CC1(C)CC(=O)c2cc(-c3nc(-c4ccc(Cl)cc4)cs3)c(=O)n(-c3ccccc3C(=O)O)c2C1 , can you help?
Key: 4600

Exercise: If you can, please state the reported IC50 value of CCc1cccc(Cl)c1-n1c(C=C(C)C)c(C(=O)N2CCNCC2)cc(-c2nc(-c3ccc(Cl)cc3)cs2)c1=O .
Key: 44
